molecular target: UniProt:Q96KS0; assay: HIF-PH assay (14CO2 capture), PHD1 enzyme inhibition; type: biochemical; conditions: Table 1; ratio of the IC50 of the compound for each enzyme
Sequence (Q96KS0 whole entry): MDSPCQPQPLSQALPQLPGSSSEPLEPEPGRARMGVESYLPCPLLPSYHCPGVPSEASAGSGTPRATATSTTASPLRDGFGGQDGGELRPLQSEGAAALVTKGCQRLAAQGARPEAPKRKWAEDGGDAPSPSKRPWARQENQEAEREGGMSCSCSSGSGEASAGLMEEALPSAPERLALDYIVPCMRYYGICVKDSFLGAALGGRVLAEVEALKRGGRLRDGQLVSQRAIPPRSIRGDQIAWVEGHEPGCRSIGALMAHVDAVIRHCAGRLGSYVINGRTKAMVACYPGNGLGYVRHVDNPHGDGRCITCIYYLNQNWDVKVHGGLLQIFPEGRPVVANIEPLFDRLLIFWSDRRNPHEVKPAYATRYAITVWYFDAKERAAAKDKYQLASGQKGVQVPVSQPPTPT
As shown below, each of these compounds has a reported PHD2/PHD1 value.
Kindly provide the number alone.

Query PHD2/PHD1 on UniProt:Q96KS0 for C[C@@H](CNC(=O)c1nc(C#N)c2cc(Oc3ccccc3)ccc2c1O)C(=O)O [Compound 93]
15

Kindly state the measured PHD2/PHD1 obtained for O=C(O)CCCNC(=O)c1ncc2cc(NC(=O)NC3CCCCC3)ccc2c1O [Compound 131] with UniProt:Q96KS0.
25

Give the reported PHD2/PHD1 for CC(C)(CNC(=O)c1nc(C#N)c2cc(Oc3cccc(F)c3)ccc2c1O)C(=O)O [Compound 42] (system: UniProt:Q96KS0).
11

What measured PHD2/PHD1 is associated with N#Cc1nc(C(=O)NCC(C(=O)O)C2CC2)c(O)c2ccc(Oc3ccc(F)cc3)cc12 (centres unmarked) [Compound 179] on UniProt:Q96KS0?
9

Under UniProt:Q96KS0: PHD2/PHD1 value of O=C(O)CCNC(=O)c1ncc2cc(-c3ccc(F)cc3)ccc2c1O [Compound 132] ?
12

Look up PHD2/PHD1 with UniProt:Q96KS0 for this compound: COc1ccc(CNc2ccc3c(O)c(C(=O)NCCCCC(=O)O)ncc3c2)cc1 [Compound 125]
20

Given the entry N#Cc1nc(C(=O)NCCCCC(=O)O)c(O)c2cc(Oc3ccccc3)ccc12 [Compound 128] , what PHD2/PHD1 was observed with UniProt:Q96KS0?
7

Enter reported PHD2/PHD1 observed with UniProt:Q96KS0 for CC(C)(CNC(=O)c1c(O)c2ccc(Oc3ccccc3)cc2c(C#N)[n+]1[O-])C(=O)O [Compound 157]
15

Fill in the recorded PHD2/PHD1 for this compound, with UniProt:Q96KS0 as test system: O=C(NC[C@H](O)C(=O)O)c1ncc2cc(Oc3ccccc3)ccc2c1O [Compound 3]
14

// map O=C(O)CCCNC(=O)c1ncc2cc(NC(=O)c3ccc(F)cc3)ccc2c1O [Compound 120] to recorded PHD2/PHD1 (system: UniProt:Q96KS0)
16

***
Query for UniProt:Q96KS0: what PHD2/PHD1 does the record show for Cc1cccc(C)c1Oc1ccc2c(C#N)nc(C(=O)NCCCCC(=O)O)c(O)c2c1 [Compound 111] ?
11

Item: O=C(O)CCCNC(=O)c1ncc2cc(NC(=O)Nc3ccccc3)ccc2c1O [Compound 119] Test system: UniProt:Q96KS0 Read-out: PHD2/PHD1 Value: ?
6

---

molecular target: UniProt:Q96KS0; assay: HIF-PH assay (14CO2 capture), PHD1 enzyme inhibition; assay type: biochemical; settings: Table 1; individual measurement; read-out: IC50 (μM) PHD1
IC50 values, listed per item
Numeric answer plus unit only.

Value lookup for IC50; key = CC(C)(CNC(=O)c1nc(C#N)c2cc(Oc3cccc(Cl)c3)ccc2c1O)C(=O)O
0.18 µM

Could you share which IC50 value was measured for O=C(O)CCNC(=O)c1ncc2cc(Oc3ccccc3)ccc2c1O ?
0.92 µM

// query IC50 value for entry CC(C)(CNC(=O)c1nc(C#N)c2cc(Oc3cccc4ccccc34)ccc2c1O)C(=O)O
0.22 µM

---

target: UniProt Q96KS0; experiment: HIF-PH assay (14CO2 capture), PHD1 enzyme inhibition; assay type: biochemical; conditions: Table 1; individual measurement; read-out: IC50 (μM) PHD1
readout-label: IC50

Given O=C(O)CCNC(=O)c1ncc2cc(-c3ccc(F)cc3)ccc2c1O [Compound 132] , state its recorded IC50.
2.38 µM

Next:
# input molecule: N#Cc1nc(C(=O)N[C@H](CC(=O)O)c2cccnc2)c(O)c2ccc(Oc3ccccc3)cc12 [Compound 176] ; wanted: its IC50
4.08 µM

Give its IC50 value. Item: CC(C)(CNC(=O)c1nc(C#N)c2cc(NC(=O)NCc3ccccc3)ccc2c1O)C(=O)O [Compound 162]
2.35 µM

For the molecule shown here, N#Cc1nc(C(=O)N[C@H](CC(=O)O)c2ccccc2)c(O)c2ccc(Oc3ccccc3)cc12 [Compound 48] , give the reported IC50.
5.42 µM

The reported measurements were obtained from patent US9409892B2.
